# protocol-summary: AUC (0 to infinity) in ICR mouse at 10 mg/kg,po administration measured for 0.25 to 8 hrs by LC-MS/MS analysis
# Assay type: ADME, organism-based
# assay-setup: in vivo, time 0.25-8 hrs

- smiles-structure: "Cc1[nH]n(-c2ccccc2)c(=O)c1Cc1ccc(C(=O)NO)cc1"
  AUC(0-inf) (ng·h/mL): 28400

====

# protocol-summary: Cmax in ICR mouse at 10 mg/kg,po administration measured for 0.25 to 8 hrs by LC-MS/MS analysis
# Type: ADME, organism-based
# assay-setup: in vivo, time 0.25-8 hrs

- smiles-structure: "Cc1[nH]n(-c2ccccc2)c(=O)c1Cc1ccc(C(=O)NO)cc1"
  unit-annotation: "ng/mL"
  Cmax: 4510

====

# protocol-summary: Tmax in ICR mouse at 1 mg/kg,iv administration measured for 0.25 to 8 hrs by LC-MS/MS analysis
# Format: ADME, organism-based
# assay-setup: in vivo, time 0.25-8 hrs

- smiles-structure: "Cc1[nH]n(-c2ccccc2)c(=O)c1Cc1ccc(C(=O)NO)cc1"
  Tmax: "4.8 min"

====

# protocol-summary: Half life in ICR mouse at 10 mg/kg,po administration measured for 0.25 to 8 hrs by LC-MS/MS analysis
# Format: ADME, organism-based
# assay-setup: in vivo, time 0.25-8 hrs

- smiles-structure: "Cc1[nH]n(-c2ccccc2)c(=O)c1Cc1ccc(C(=O)NO)cc1"
  half-life: "4.16 h"

====

# assayed-target: Prostaglandin G/H synthase 2 (Homo sapiens)
# protocol-summary: Inhibition of COX-2 (unknown origin) using arachidonic acid as substrate at 10 uM preincubated for 10 mins followed by substrate addition and measured after 5 mins by fluorescence based analysis relative to control
# assay-setup: time 15.0 min
Measured inhibition by item

- smiles-structure: "O=C(O)c1ccc(Cc2c(C3CC3)nn(-c3ccccc3)c2O)cc1"
  unit-annotation: "%"
  inhibition: 82
- smiles-structure: "Cc1nn(-c2cccc(Cl)c2)c(O)c1Cc1ccc(C(=O)O)cc1"
  unit-annotation: "%"
  inhibition: 75
- smiles-structure: "CC(C)(C)c1nn(-c2ccccc2)c(O)c1Cc1ccc(C(=O)NO)cc1"
  unit-annotation: "%"
  inhibition: 89
- smiles-structure: "Cc1[nH]n(-c2ccccc2)c(=O)c1Cc1ccc(C(=O)NO)cc1"
  unit-annotation: "%"
  inhibition: 98

====

A collection of molecules and their measured inhibition
# assayed-target: Prostaglandin G/H synthase 2 (Homo sapiens)
# protocol-summary: Inhibition of COX-2 (unknown origin) using arachidonic acid as substrate at 1 uM preincubated for 10 mins followed by substrate addition and measured after 5 mins by fluorescence based analysis relative to control
# assay-setup: time 15.0 min

- smiles-structure: "Cc1nn(-c2ccc(Cl)c(Cl)c2)c(O)c1Cc1ccc(C(=O)O)cc1"
  unit-annotation: "%"
  inhibition: 50.5
- smiles-structure: "COc1cccc(-n2nc(C)c(Cc3ccc(C(=O)O)cc3)c2O)c1"
  unit-annotation: "%"
  inhibition: 58.5
- smiles-structure: "Cc1[nH]n(-c2ccccc2)c(=O)c1Cc1cccc(C(=O)NO)c1"
  unit-annotation: "%"
  inhibition: 66.5
- smiles-structure: "Cc1nn(-c2cccc(Cl)c2)c(O)c1Cc1ccc(C(=O)O)cc1"
  unit-annotation: "%"
  inhibition: 45.5
- smiles-structure: "CCc1nn(-c2ccccc2)c(O)c1Cc1ccc(C(=O)O)cc1"
  unit-annotation: "%"
  inhibition: 63.5
- smiles-structure: "Cc1[nH]n(-c2ccccc2)c(=O)c1Cc1ccc(C(=O)NO)cc1"
  unit-annotation: "%"
  inhibition: 87
- smiles-structure: "Cc1nn(-c2ccc(Cl)cc2)c(O)c1Cc1ccc(C(=O)O)cc1"
  unit-annotation: "%"
  inhibition: 46
